# Protocol Summary: Cytotoxicity against human Hep2 cells
# Assay type: cell-based, HEp-2
Readout Type: CC50 (µM)
Provide the reading as a plain figure in µM.

Reference set (7 entries):
>>> observed_measurement("CCOC(=O)Cn1c(=O)c2ccccc2n(Cc2nc3ccccc3n2CCC(C)C)c1=O")
16.6
>>> observed_measurement("CC(C)CCn1c(CN2C(=O)C(CC(=O)O)c3ccccc32)nc2ccccc21 (stereo not given)")
16.5
>>> observed_measurement("COC(=O)c1ccc(Cn2c(=O)c3ccccc3n(Cc3nc4ccccc4n3CCn3cnnn3)c2=O)cc1")
25.3
>>> observed_measurement("O=c1c(Br)cc2ccccc2n1Cc1nc2ccccc2n1CCCCF")
26.2
>>> observed_measurement("CC1(C)C(=O)N(Cc2nc3ccccc3n2CCCCF)c2ccccc2S1(=O)=O")
158
>>> observed_measurement("CC(C)CCn1c(Cn2c(=O)n(C3CC3)c(=O)c3ccccc32)nc2cc(CN)ccc21")
8.58
>>> observed_measurement("CN1C(=O)N(Cc2nc3ccccc3n2CCCS(C)(=O)=O)c2ccccc2S1(=O)=O")
34.5

Next item in the queue.
Query block: Name the recorded CC50 of the item O=C1N(Cc2nc3ccccc3n2CCCCF)c2ccccc2S(=O)(=O)N1C1CC1 in your answer.
Result block: 111
